system: intracellular amastigotes of the Tulahuen strain; experiment: Intracellular amastigote assay, Tulahuen β-galactosidase strain in Vero cells; type: cell-based, Trypanosoma cruzi; settings: Trypanosoma cruzi, TULAHUEN; * not reliable because of the simultaneous toxic effect against Vero cells; read-out: Activity on Tul Amastigotes
# EC50 listing for each entry below

[
  {
    "mol_smiles": "COCCNCc1ccc(-c2cc3nccc(Oc4ccc(NC(=S)NC(=O)Cc5ccc(F)cc5)cc4F)c3s2)nc1",
    "system": "intracellular amastigotes of the Tulahuen strain",
    "measurement_unit": "µM",
    "EC50": 6.49
  },
  {
    "mol_smiles": "CC1(C)CCC(c2ccc(Cl)cc2)=C(CN2CCN(c3ccc(C(=O)NS(=O)(=O)c4ccc(N[C@H](CCN5CCOCC5)CSc5ccccc5)c(S(=O)(=O)C(F)(F)F)c4)cc3)CC2)C1",
    "system": "intracellular amastigotes of the Tulahuen strain",
    "measurement_unit": "µM",
    "EC50": 2.14
  }
]

---

system: Vero cells; test: Cytotoxicity against Vero cells; type: cell-based
measurement_name: cytotoxic effects on Vero cells

[
  {
    "compound": "COCCNCc1ccc(-c2cc3nccc(Oc4ccc(NC(=S)NC(=O)Cc5ccc(F)cc5)cc4F)c3s2)nc1 [Glesatinib]",
    "measurement_name": "cytotoxic effects on Vero cells",
    "observed_result": "cytotoxic effects"
  },
  {
    "compound": "CC1(C)CCC(c2ccc(Cl)cc2)=C(CN2CCN(c3ccc(C(=O)NS(=O)(=O)c4ccc(N[C@H](CCN5CCOCC5)CSc5ccccc5)c(S(=O)(=O)C(F)(F)F)c4)cc3)CC2)C1 [Navitoclax]",
    "measurement_name": "cytotoxic effects on Vero cells",
    "observed_result": "cytotoxic effects"
  }
]

---

test: Cytotoxicity against Vero cells; assay type: cell-based; conditions: African green monkey, Vero cells; Not toxic = no toxic effect observed up to 50 µM

[
  {
    "mol_smiles": "CC1(C)CCC(c2ccc(Cl)cc2)=C(CN2CCN(c3ccc(C(=O)NS(=O)(=O)c4ccc(N[C@H](CCN5CCOCC5)CSc5ccccc5)c(S(=O)(=O)C(F)(F)F)c4)cc3)CC2)C1",
    "CC50 / µM": 6.03
  }
]
